- experimental-protocol: Human pharmacokinetic study, Example 5 Arm I (single dose, replicated crossover)
- Type: in vivo
- measurement-conditions: both sexes, human, blood, oral, 3 film-coated Formulation C5-12 tablets, single dose, non-fasting, Regimen A (C5-12): three film-coated Formulation C5-12 tablets, N = 172, read-out: AUCt, geometric mean
Kindly state AUC(0-t) for each of the entries shown.

Prompt line: Which value of AUC(0-t) has been reported for COc1c(-c2ccc3cc(NS(C)(=O)=O)ccc3c2)cc(-n2ccc(=O)[nH]c2=O)cc1C(C)(C)C [Compound 4] in the records?
Response line: 12700 ng·h/mL

Prompt line: Same lookup for COC(=O)N[C@H](C(=O)N1CCC[C@H]1C(=O)Nc1ccc([C@@H]2CC[C@@H](c3ccc(NC(=O)[C@@H]4CCCN4C(=O)[C@@H](NC(=O)OC)C(C)C)cc3)N2c2ccc(C(C)(C)C)cc2)cc1)C(C)C [Compound 2] , please.
Response line: 1660 ng·h/mL

----------
- experimental-protocol: Sink Conditions dissolution testing of Formulation C5-12
- Assay type: physicochemical
- measurement-conditions: 4 hours, pH 6.8 buffer, 15 mM cTAB, N = 6
readout: % Released (%)
Hi! Could you send only the number? It should be in %, unit omitted.

Prompt line: Quick check: % Released of CC(C)c1nc(CN(C)C(=O)N[C@H](C(=O)N[C@@H](Cc2ccccc2)C[C@H](O)[C@H](Cc2ccccc2)NC(=O)OCc2cncs2)C(C)C)cs1 [Compound 3, reference compound] ?
Response line: 99

Prompt line: Would you mind doing Cc1cnc(C(=O)N[C@H]2CCCCC/C=C\[C@@H]3C[C@@]3(C(=O)NS(=O)(=O)C3CC3)NC(=O)[C@@H]3C[C@@H](Oc4nc5ccccc5c5ccccc45)CN3C2=O)cn1 [Compound 1] as well?
Response line: 98

Prompt line: Do the same for COC(=O)N[C@H](C(=O)N1CCC[C@H]1C(=O)Nc1ccc([C@@H]2CC[C@@H](c3ccc(NC(=O)[C@@H]4CCCN4C(=O)[C@@H](NC(=O)OC)C(C)C)cc3)N2c2ccc(C(C)(C)C)cc2)cc1)C(C)C [Compound 2] please
Response line: 98

Prompt line: Same for COc1c(-c2ccc3cc(NS(C)(=O)=O)ccc3c2)cc(-n2ccc(=O)[nH]c2=O)cc1C(C)(C)C [Compound 4]
Response line: 11

----------
Can you tell me AUC for the items I'm about to list?
- experimental-protocol: Human pharmacokinetic study, Example 5 Arm II (multiple dose, crossover)
- Format: in vivo
- measurement-conditions: both sexes, human, blood, oral, 3 film-coated Formulation C5-12 tablets daily; Example 5 Arm II, multiple dose 14 days, non-fasting; Regimen A (C5-12): three film-coated Formulation C5-12 tablets daily; N = 63; read-out: AUC24, geometric mean
Remember to quote the unit after the number.

Prompt line: Reported AUC for Cc1cnc(C(=O)N[C@H]2CCCCC/C=C\[C@@H]3C[C@@]3(C(=O)NS(=O)(=O)C3CC3)NC(=O)[C@@H]3C[C@@H](Oc4nc5ccccc5c5ccccc45)CN3C2=O)cn1 : what is it?
Response line: 8900 ng·h/mL

Prompt line: Next record, please: COc1c(-c2ccc3cc(NS(C)(=O)=O)ccc3c2)cc(-n2ccc(=O)[nH]c2=O)cc1C(C)(C)C
Response line: 8810 ng·h/mL

Prompt line: Query CC(C)c1nc(CN(C)C(=O)N[C@H](C(=O)N[C@@H](Cc2ccccc2)C[C@H](O)[C@H](Cc2ccccc2)NC(=O)OCc2cncs2)C(C)C)cs1 [Compound 3, reference compound] next
Response line: 8670 ng·h/mL

----------
- experimental-protocol: Human pharmacokinetic study, Example 4 Arm III (14-day multiple dose, steady state)
- Format: in vivo
- measurement-conditions: human, in vivo, oral, 3 Formulation C5-12 tablets daily, three Formulation C5-12 tablets daily for 14 days, non-fasting, Day 14, N = 14
readout: half-life (min)
Write it as a number; the unit min goes unstated.

Prompt line: half-life for Cc1cnc(C(=O)N[C@H]2CCCCC/C=C\[C@@H]3C[C@@]3(C(=O)NS(=O)(=O)C3CC3)NC(=O)[C@@H]3C[C@@H](Oc4nc5ccccc5c5ccccc45)CN3C2=O)cn1 ?
Response line: 276

Prompt line: Please do the same for COC(=O)N[C@H](C(=O)N1CCC[C@H]1C(=O)Nc1ccc([C@@H]2CC[C@@H](c3ccc(NC(=O)[C@@H]4CCCN4C(=O)[C@@H](NC(=O)OC)C(C)C)cc3)N2c2ccc(C(C)(C)C)cc2)cc1)C(C)C as well.
Response line: 1790

Prompt line: Proceed to COc1c(-c2ccc3cc(NS(C)(=O)=O)ccc3c2)cc(-n2ccc(=O)[nH]c2=O)cc1C(C)(C)C
Response line: 354
